Reported Inhibition values follow for various compounds
- System: Escherichia coli
- run-parameters: Concentration 32 ug.mL-1;; ASSAY_TEST Inhibition of Bacterial Growth; detection method Absorption (OD600); MEDIA CAMHB; plate type 384well; NBS; CORNING #3640; time 18 hr
- Description: Antibacterial activity against Escherichia coli ATCC 25922 (CO-ADD:GN_001); MIC in CAMBH media using NBS plates, by OD(600)
Entries with a potency or affinity are not part of this list.
Lab book: enter the figure in %, no units written.

Sample answers from the record:
structure-smiles | Inhibition [%]
Cc1cc(C)c(C(=O)CSc2nnc3c(=O)n(-c4ccc(F)cc4)ccn23)cc1C | -5.27
Cc1ccc(CN(c2ccc(F)cc2)S(=O)(=O)c2ccc3nnc(C)n3c2)cc1 | -18.59
CSc1cccc(NC(=O)Cn2nc3ccc(-c4ccccc4)nn3c2=O)c1 | -15.49
Cc1[nH]c2ccccc2c1C(=O)CSc1nnc2c(=O)n(-c3ccccc3)ccn12 | -0.61

Sample COC(=O)c1cccc(NC(=O)Cn2nc3c(N4CCCCCC4)nccn3c2=O)c1 — what was its Inhibition?
-10.52

* * *

- Tested on: Escherichia coli
- run-parameters: Concentration 32 ug.mL-1;; ASSAY_TEST Inhibition of Bacterial Growth; detection method Absorption (OD600); MEDIA CAMHB; plate type 384well; NBS; CORNING #3640; time 18 hr
Potency and affinity values are given separately.
property: Inhibition (%)
Lab book: enter the figure in %, no units written.

Sample answers from the record:
compound | unit-of-measurement | obs-value
COc1ccc(-c2cc3c4nnc(SCC(=O)Nc5ccc(OC)c(Cl)c5)n4ccn3n2)cc1 | % | -2.1
Cc1cccc(Oc2nc3ccccc3n3c(=O)n(CC(=O)NCc4ccco4)nc23)c1C | % | -6.2
Cc1nnc2c(=O)n(CC(=O)Nc3ccc(C(C)C)cc3)c3ccccc3n12 | % | -2.69

Sample Cc1cccc(NC(=O)CSc2nnc3c(=O)n(-c4ccccc4)ccn23)c1 — what was its Inhibition?
-6.81

Sample CCc1nnc2c(SCC(=O)Nc3ccc(Br)cc3)nc3ccccc3n12 — what was its Inhibition?
0.98

Sample Cc1nnc2ccc(S(=O)(=O)N(CC(=O)OC(C)(C)C)c3ccc4c(c3)OCO4)cn12 — what was its Inhibition?
-7.09

Sample Cc1cc2nn(CC(=O)Nc3ccc(F)cc3Cl)c(=O)n2c(Nc2ccccc2C)n1 — what was its Inhibition?
-11.67

Sample CC(=O)c1ccc(N2CCN(C(=O)CCc3nnc4c5cc(-c6ccccc6)nn5ccn34)CC2)cc1 — what was its Inhibition?
2.66

Sample CCCCOc1ccc(-c2cc3c4nnc(SCC(=O)Nc5cccc(C(C)=O)c5)n4ccn3n2)cc1 — what was its Inhibition?
1.11

Sample CCc1nnc2ccc(S(=O)(=O)N(Cc3ccc(OC)cc3)c3ccc(F)cc3)cn12 — what was its Inhibition?
-5.2

Sample CCc1ccccc1NC(=O)CSc1nnc2c(=O)n(-c3ccccc3)ccn12 — what was its Inhibition?
-0.17

Sample CCOc1ccc(C(=O)CSc2nnc3c(=O)n(-c4ccc(Br)cc4)ccn23)cc1 — what was its Inhibition?
-1.32

Sample C=Cc1ccc(CSc2nnc3c(=O)n(-c4ccc(F)cc4)ccn23)cc1 — what was its Inhibition?
-2.33

Sample C=Cc1ccc(CSc2nnc3c(=O)n(-c4ccc(Br)cc4)ccn23)cc1 — what was its Inhibition?
-8.25

Sample COc1ccc(CN(c2ccc(F)cc2)S(=O)(=O)c2cccn3c(C)nnc23)cc1 — what was its Inhibition?
-3.22

Sample CCC(C)NC(=O)Cn1nc2n(CCC(C)C)c(=O)c3sccc3n2c1=O (stereo unspecified) — what was its Inhibition?
-5.43

Sample CCOC(=O)c1ccc(NC(=O)Cn2nc3c4cc(-c5ccc(Cl)cc5)nn4ccn3c2=O)cc1 — what was its Inhibition?
-5.39

* * *

- Test system: Escherichia coli
- run-parameters: Concentration 32 ug.mL-1;; ASSAY_TEST Inhibition of Bacterial Growth; detection method Absorption (OD600); MEDIA CAMHB; plate type 384well; NBS; CORNING #3640; time 18 hr
Potency and affinity values are given separately.
Reported Inhibition values follow for various molecules
Lab book: enter the figure in %, no units written.

Sample answers from the record:
structure-smiles | Inhibition / %
CC(C)c1ccc(N(Cc2ccc(Cl)cc2)S(=O)(=O)c2cccn3cnnc23)cc1 | 3.76
Cc1cccc(CSc2nnc3c(=O)n(-c4ccc(Br)cc4)ccn23)c1 | 1.19
COc1ccc(NC(=O)Cn2nc3ccc(SCc4ccc(Cl)cc4)nn3c2=O)cc1Cl | -11.11

Shift focus to the following entry.
Sample CCc1ccc(N(Cc2cccc(OC)c2)S(=O)(=O)c2cccn3c(C)nnc23)cc1 — what was its Inhibition?
-9.35

Every entry's value here was drawn from ChEMBL document CHEMBL4513146.
